- Assay summary: Therapeutic index, ratio of MHC for human RBC to MIC for Escherichia coli BL21
- Type: toxicity
- Test settings: read-out: TI
Bridge positions count the residues as written; N and C are the ends. Square brackets hold non-standard residues; d marks the D form. Peptide text beside a SMILES is read from it. S5 = C=CCCC[C@](C)(N)C(=O)O
The entries below come with measured selectivity ratio values attached.

Compound | selectivity ratio
C[C@H](NC(=O)[C@H](C)NC(=O)[C@H](Cc1ccccc1)NC(=O)[C@]1(C)CCC/C=C\CCC[C@](C)(NC(=O)[C@H](Cc2ccccc2)NC(=O)[C@H](C)NC(=O)[C@H](C)NC(=O)[C@H](CCCCN)NC(=O)[C@H](CCCCN)NC(=O)[C@H](CCCCN)NC(=O)[C@H](CCCCN)NC(=O)[C@H](CCCCN)NC(=O)[C@@H](N)CCCCN)C(=O)N[C@@H](C)C(=O)N[C@@H](Cc2c[nH]c3ccccc23)C(=O)N[C@@H](C)C(=O)N1)C(N)=O (H-KKKKKKAAF[S5]AWA[S5]FAA-NH2; staple (Z) 10-14) | 3.8
C[C@H](NC(=O)CNC(=O)[C@H](Cc1ccccc1)NC(=O)[C@]1(C)CCC/C=C\CCC[C@](C)(NC(=O)[C@H](Cc2ccccc2)NC(=O)CNC(=O)[C@H](C)NC(=O)[C@H](CCCCN)NC(=O)[C@H](CCCCN)NC(=O)[C@H](CCCCN)NC(=O)[C@H](CCCCN)NC(=O)[C@H](CCCCN)NC(=O)[C@@H](N)CCCCN)C(=O)N[C@@H](C)C(=O)N[C@@H](Cc2c[nH]c3ccccc23)C(=O)N[C@@H](C)C(=O)N1)C(N)=O (H-KKKKKKAGF[S5]AWA[S5]FGA-NH2; staple (Z) 10-14) | 9.4
C[C@H](NC(=O)CNC(=O)[C@H](Cc1ccccc1)NC(=O)[C@]1(C)CCC/C=C\CCC[C@](C)(NC(=O)[C@H](Cc2ccccc2)NC(=O)CNC(=O)[C@H](CC(N)=O)NC(=O)[C@H](CCCCN)NC(=O)[C@H](CCCCN)NC(=O)[C@H](CCCCN)NC(=O)[C@H](CCCCN)NC(=O)[C@H](CCCCN)NC(=O)[C@@H](N)CCCCN)C(=O)N[C@@H](C)C(=O)N[C@@H](Cc2c[nH]c3ccccc23)C(=O)NCC(=O)N1)C(N)=O (H-KKKKKKNGF[S5]AWG[S5]FGA-NH2; staple (Z) 10-14) | 140
C[C@H](NC(=O)CNC(=O)[C@H](Cc1ccccc1)NC(=O)[C@]1(C)CCC/C=C\CCC[C@](C)(NC(=O)[C@H](Cc2ccccc2)NC(=O)CNC(=O)[C@H](C)NC(=O)[C@H](CCCCN)NC(=O)[C@H](CCCCN)NC(=O)[C@H](CCCCN)NC(=O)[C@H](CCCCN)NC(=O)[C@H](CCCCN)NC(=O)[C@@H](N)CCCCN)C(=O)N[C@@H](C)C(=O)N[C@@H](Cc2c[nH]c3ccccc23)C(=O)NCC(=O)N1)C(N)=O (H-KKKKKKAGF[S5]AWG[S5]FGA-NH2; staple (Z) 10-14) | 30.8

---

- Test system: Lipid bilayer
- Assay summary: Binding affinity to Escherichia coli large unilamellar vesicles assessed as reduction in blue shift at 10 uM by tryptophan fluorescence-based fluorometry
The source made the active and inactive calls. No cut-off for these calls is given here. Bridge positions count the residues as written; N and C are the ends. Square brackets hold non-standard residues; d marks the D form. Peptide text beside a SMILES is read from it. S5 = C=CCCC[C@](C)(N)C(=O)O
Labels: true (1) for active, false (0) for inactive

Compound | Class
C[C@H](NC(=O)[C@H](C)NC(=O)[C@H](Cc1ccccc1)NC(=O)[C@]1(C)CCC/C=C\CCC[C@](C)(NC(=O)[C@H](Cc2ccccc2)NC(=O)[C@H](C)NC(=O)[C@H](C)NC(=O)[C@H](CCCCN)NC(=O)[C@H](CCCCN)NC(=O)[C@H](CCCCN)NC(=O)[C@H](CCCCN)NC(=O)[C@H](CCCCN)NC(=O)[C@@H](N)CCCCN)C(=O)N[C@@H](C)C(=O)N[C@@H](Cc2c[nH]c3ccccc23)C(=O)N[C@@H](C)C(=O)N1)C(N)=O (H-KKKKKKAAF[S5]AWA[S5]FAA-NH2; staple (Z) 10-14) | false (0)
C[C@H](NC(=O)CNC(=O)[C@H](Cc1ccccc1)NC(=O)[C@]1(C)CCC/C=C\CCC[C@](C)(NC(=O)[C@H](Cc2ccccc2)NC(=O)CNC(=O)[C@H](CC(N)=O)NC(=O)[C@H](CCCCN)NC(=O)[C@H](CCCCN)NC(=O)[C@H](CCCCN)NC(=O)[C@H](CCCCN)NC(=O)[C@H](CCCCN)NC(=O)[C@@H](N)CCCCN)C(=O)N[C@@H](C)C(=O)N[C@@H](Cc2c[nH]c3ccccc23)C(=O)NCC(=O)N1)C(N)=O (H-KKKKKKNGF[S5]AWG[S5]FGA-NH2; staple (Z) 10-14) | true (1)
C[C@H](NC(=O)CNC(=O)[C@H](Cc1ccccc1)NC(=O)[C@]1(C)CCC/C=C\CCC[C@](C)(NC(=O)[C@H](Cc2ccccc2)NC(=O)CNC(=O)[C@H](C)NC(=O)[C@H](CCCCN)NC(=O)[C@H](CCCCN)NC(=O)[C@H](CCCCN)NC(=O)[C@H](CCCCN)NC(=O)[C@H](CCCCN)NC(=O)[C@@H](N)CCCCN)C(=O)N[C@@H](C)C(=O)N[C@@H](Cc2c[nH]c3ccccc23)C(=O)N[C@@H](C)C(=O)N1)C(N)=O (H-KKKKKKAGF[S5]AWA[S5]FGA-NH2; staple (Z) 10-14) | true (1)
C[C@H](NC(=O)CNC(=O)[C@H](Cc1ccccc1)NC(=O)[C@]1(C)CCC/C=C\CCC[C@](C)(NC(=O)[C@H](Cc2ccccc2)NC(=O)CNC(=O)[C@H](C)NC(=O)[C@H](CCCCN)NC(=O)[C@H](CCCCN)NC(=O)[C@H](CCCCN)NC(=O)[C@H](CCCCN)NC(=O)[C@H](CCCCN)NC(=O)[C@@H](N)CCCCN)C(=O)N[C@@H](C)C(=O)N[C@@H](Cc2c[nH]c3ccccc23)C(=O)NCC(=O)N1)C(N)=O (H-KKKKKKAGF[S5]AWG[S5]FGA-NH2; staple (Z) 10-14) | true (1)
